Assayed System: 5-hydroxytryptamine receptor 3A (Homo sapiens); note: assay procedure not described here
Sequence (P46098 whole entry): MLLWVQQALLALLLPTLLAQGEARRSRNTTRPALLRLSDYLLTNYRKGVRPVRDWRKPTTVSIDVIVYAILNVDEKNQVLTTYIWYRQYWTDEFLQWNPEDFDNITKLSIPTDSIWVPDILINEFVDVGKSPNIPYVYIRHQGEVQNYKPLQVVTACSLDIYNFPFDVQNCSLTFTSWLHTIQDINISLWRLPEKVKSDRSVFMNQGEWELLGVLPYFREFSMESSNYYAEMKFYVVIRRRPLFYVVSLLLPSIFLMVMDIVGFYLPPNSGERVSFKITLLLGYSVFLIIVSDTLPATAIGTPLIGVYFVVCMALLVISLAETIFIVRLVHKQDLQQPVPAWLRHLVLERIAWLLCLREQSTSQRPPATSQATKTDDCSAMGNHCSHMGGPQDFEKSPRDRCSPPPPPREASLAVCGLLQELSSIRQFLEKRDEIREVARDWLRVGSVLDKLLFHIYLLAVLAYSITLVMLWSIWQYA
Format: functional
Measured AC50 values are reported for all entries that follow.
Quantity: AC50

INSERT INTO assay_data (compound, value_measured) VALUES
  ('COCCOC(=O)C1=C(C)NC(C)=C(C(=O)OC/C=C/c2ccccc2)C1c1cccc([N+](=O)[O-])c1 (stereo not given)', '> 30 µM'),
  ('NC(=O)c1ncn([C@@H]2O[C@H](CO)[C@@H](O)[C@H]2O)n1', '> 30 µM'),
  ('CNCC[C@H](Oc1cccc2ccccc12)c1cccs1', '14 µM'),
  ('CC(C)=CCOc1ccc(/C=C/C(=O)c2ccc(OCC=C(C)C)cc2OCC(=O)O)cc1', '> 30 µM'),
  ('CN(c1nccc(=O)[nH]1)C1CCN(c2nc3ccccc3n2Cc2ccc(F)cc2)CC1', '> 30 µM');

---

Assayed System: Adenosine receptor A1 (Homo sapiens, UniProt P30542); note: assay procedure not described here
Sequence (P30542 whole entry): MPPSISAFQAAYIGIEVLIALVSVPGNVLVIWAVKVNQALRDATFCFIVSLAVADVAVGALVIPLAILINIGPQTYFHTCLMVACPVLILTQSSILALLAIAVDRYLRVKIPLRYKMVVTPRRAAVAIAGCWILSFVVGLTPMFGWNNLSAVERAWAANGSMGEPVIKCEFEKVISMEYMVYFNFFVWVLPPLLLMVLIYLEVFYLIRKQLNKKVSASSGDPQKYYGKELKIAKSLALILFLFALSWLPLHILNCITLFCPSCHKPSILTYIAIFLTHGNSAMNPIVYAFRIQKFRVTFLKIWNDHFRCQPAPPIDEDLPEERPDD
Quantity: AC50

INSERT INTO results (compound, assayed_system, quantity, value_measured) VALUES
  ('CC(C)C[C@H](CN)CC(=O)O', 'Adenosine receptor A1 (Homo sapiens, UniProt P30542)', 'AC50', '> 30 µM'),
  ('NC(=O)CCC/N=C(\c1ccc(Cl)cc1)c1cc(F)ccc1O [PROGABIDE]', 'Adenosine receptor A1 (Homo sapiens, UniProt P30542)', 'AC50', '> 10 µM'),
  ('CCC(=O)OCC(=O)[C@@]1(OC(=O)CC)[C@@H](C)C[C@H]2[C@@H]3CCC4=CC(=O)C=C[C@]4(C)[C@@]3(F)[C@@H](O)C[C@@]21C [BETAMETHASONE DIPROPIONATE]', 'Adenosine receptor A1 (Homo sapiens, UniProt P30542)', 'AC50', '> 30 µM');
